- System: P. falciparum (NF54 or 3D7 strain)
- Method notes: Assay for P. falciparum proliferation in infected human blood cells (SYBR Green)
- Assay type: cell-based, Plasmodium falciparum
- Condition notes: Plasmodium falciparum, Erythrocyte, 72 h, NF54 or 3D7 infected human erythrocytes, 72 hours; read-out: EC50 (nM), inhibitory efficacy in delaying P. falciparum proliferation in infected human blood cells
Could you please classify the records by EC50 using these ranges: bottom = under 300 nM, middle = from 300 nM up to 1000 nM, top = 1000 nM and over

| Molecule | Cat |
| --- | --- |
| CN(C)CCOc1ccc(-c2cnc3cnc(C(=O)N(C)c4ccc(C#N)cc4)cn23)cc1 | middle |
| CN(C(=O)c1cn2c(-c3ccc(C(F)F)cc3)cnc2cn1)c1ccc(Cl)nc1 | middle |
| CN(C(=O)c1cn2c(-c3ccc(Cl)cc3)cnc2cn1)c1ccc(Cl)cc1Cl | bottom |
| CN(C(=O)c1cn2c(-c3ccc(S(C)(=O)=O)cc3)cnc2cn1)c1ccc(C#N)cc1 | middle |
| CN(C(=O)c1cn2c(-c3ccc(N)cc3)cnc2cn1)c1ccc(C#N)cc1 | bottom |
| NC(=O)C1CCCN(C(=O)c2cn3c(-c4ccc(C(F)(F)F)cc4)cnc3cn2)C1 (stereo not shown) | top |
| CN(C)c1ccc(-c2cnc3cnc(C(=O)N(C)c4ccc(C#N)cc4)cn23)cc1 | bottom |
| CN(C(=O)c1cn2c(-c3ccc(C(F)(F)F)cc3)cnc2cn1)c1ccc(Oc2ccccc2)cc1 | top |
| CN(C(=O)c1cn2c(-c3ccc(-c4nncs4)cc3)cnc2cn1)c1ccc(C#N)cc1 | middle |
| COc1ncc(N(C)C(=O)c2cn3c(-c4ccc(C(F)(F)F)cc4)cnc3cn2)cc1C | middle |
| CN(Cc1cn2c(-c3ccc(C(F)(F)F)cc3)cnc2cn1)c1ccc(Cl)nc1 | bottom |
| CCN(CC)C(=O)c1ccc(-c2cnc3cnc(C(=O)N(C)c4ccc(C#N)cc4)cn23)cc1 | top |
| CN(C(=O)c1cn2c(-c3ccc(C(F)(F)F)cc3)cnc2cn1)c1ccc(S(C)(=O)=O)cn1 | top |
| CN(C(=O)c1cn2c(-c3ccc(C(F)(F)F)cc3)cnc2cn1)c1ccc(Br)nc1 | top |
| CN(C(=O)c1cn2c(-c3ccc(C(F)(F)F)cc3)cnc2cn1)c1ccc2c(c1)nnn2C | top |
| CN(C(=O)c1cn2c(-c3ccc(C(F)(F)F)cc3)cnc2cn1)c1ccccc1C(F)(F)F | top |

====

- System: P. falciparum (NF54 or 3D7 strain)
- Method notes: Assay for P. falciparum proliferation in infected human blood cells (SYBR Green)
- Type: cell-based, Plasmodium falciparum
- Condition notes: Plasmodium falciparum, Erythrocyte, 72 h, NF54 or 3D7 infected human erythrocytes, 72 hours; read-out: EC50 (nM), inhibitory efficacy in delaying P. falciparum proliferation in infected human blood cells
In this section we review reported EC50 values for a set of molecules.

| Molecule | Value relation sign | EC50 (nM) |
| --- | --- | --- |
| CC(=O)Nc1ccc(-c2cnc3cnc(C(=O)N(C)c4ccc(C#N)cc4)cn23)cn1 | = | 127 |
| CN(C(=O)c1cn2c(-c3ccc(C#N)cc3)cnc2cn1)c1ccc(S(C)(=O)=O)cc1 | = | 3990 |
| CN(C(=O)c1cn2c(-c3cnn(C)c3)cnc2cn1)c1ccc(C#N)cc1 | = | 7890 |
| CN(C(=O)c1cn2c(-c3ccc(C(F)(F)F)cc3)cnc2cn1)c1ccc(CN)cc1 | > | 6830 |
| CN(C(=O)c1cn2c(-c3ccc(OC(F)F)cc3)cnc2cn1)c1ccc(C#N)cc1 | = | 31 |
| COc1cccc(N(C)C(=O)c2cn3c(-c4ccc(C(F)(F)F)cc4)cnc3cn2)c1 | = | 140 |
| CN(C(=O)c1cn2c(-c3ccc(-c4nnc(N)o4)cc3)cnc2cn1)c1ccc(C#N)cc1 | = | 87 |
| CN(C(=O)c1cn2c(-c3ccc(C4NC(=O)NC4=O)cc3)cnc2cn1)c1ccc(C#N)cc1 (centres unmarked) | = | 4610 |
| CN(Cc1cn2c(-c3ccc(C(F)(F)F)cc3)cnc2cn1)c1ccc(C#N)cc1 | = | 41 |
| CN(C(=O)c1cn2c(-c3ccc(OC(F)F)cc3)cnc2cn1)c1ccc(C#N)cn1 | = | 1100 |
| CN(Cc1cn2c(-c3ccc(OC(F)F)cc3)cnc2cn1)c1ccc(F)cc1 | = | 46 |
| CN(C(=O)c1cn2c(-c3ccc(NC(=O)C(N)C4CC4)cc3)cnc2cn1)c1ccc(C#N)cc1 (stereo in doubt) | = | 304 |
| CC(N)C(=O)Nc1ccc(-c2cnc3cnc(C(=O)N(C)c4ccc(C#N)cc4)cn23)cc1 (stereo in doubt) | = | 207 |
| CC1(C)CN(C(=O)c2cn3c(-c4ccc(C(F)(F)F)cc4)cnc3cn2)c2ccc(C#N)cc2O1 | > | 5630 |
| CN(Cc1cn2c(-c3ccc(C(N)=O)cc3)cnc2cn1)c1ccc(F)cc1 | = | 30 |
| CN(C(=O)c1cn2c(-c3ccc(NC(=O)C(C)(C)N)cc3)cnc2cn1)c1ccc(C#N)cc1 | > | 9300 |
| CN(C(=O)c1cn2c(-c3ccc(C4CCCN4)cc3)cnc2cn1)c1ccc(C#N)cc1 (centres unmarked) | = | 8590 |
| O=C(c1cn2c(-c3ccc(C(F)(F)F)cc3)cnc2cn1)N1CCCc2cc(F)ccc21 | = | 128 |
| CN(C(=O)c1cn2c(-c3ccc(Cl)cc3)cnc2cn1)c1ccc(C#N)cc1 | = | 206 |
| CN(C(=O)c1cn2c(-c3ccc(-c4nnc(N)o4)cc3)cnc2cn1)c1ccc(F)cc1 | = | 40 |
| Cc1ccc(N(C)Cc2cn3c(-c4ccc(C(N)=O)cc4)cnc3cn2)nc1 | = | 138 |
| CN(C)c1ccc(-c2cnc3cnc(C(=O)N(C)c4ccc(Cl)cc4)cn23)cc1 | = | 266 |
| CN(C(=O)c1cn2c(-c3ccc(C(F)(F)F)cc3)cnc2cn1)c1ccc(Cl)nc1 | = | 181 |
| CN(C(=O)c1cn2c(-c3ccc(OC(C)(C)C(N)=O)cc3)cnc2cn1)c1ccc(C#N)cc1 | = | 876 |
| CN(C(=O)c1cn2c(-c3ccc(C(=O)NC4CC4)cc3)cnc2cn1)c1ccc(C#N)cc1 | = | 2050 |
| CC(C)(NC(=O)c1cn2c(-c3ccc(C(F)(F)F)cc3)cnc2cn1)c1ccc(F)cc1 | > | 7910 |
| CN(C(=O)c1cn2c(-c3ccc4[nH]ncc4c3)cnc2cn1)c1ccc(Cl)nc1 | = | 4680 |
| COc1ccc(-c2cnc3cnc(C(=O)N(C)c4ccc(C#N)cc4)cn23)cc1 | = | 168 |
| N#Cc1ccc2c(c1)CCCN2C(=O)c1cn2c(-c3ccc(C(F)(F)F)cc3)cnc2cn1 | = | 224 |
| COc1ccc(N(C)C(=O)c2cn3c(-c4ccc(C(F)(F)F)cc4)cnc3cn2)cc1 | = | 1160 |
| CN(C(=O)c1cn2c(-c3ccc(C(F)(F)F)cc3)cnc2cn1)c1cnc(Cl)s1 | = | 2840 |
| CN(C(=O)c1cn2c(-c3ccc(C(F)(F)F)cc3)cnc2cn1)c1ccccn1 | = | 3880 |

====

- Test system: P. falciparum (NF54 or 3D7 strain)
- Method notes: Assay for P. falciparum proliferation in infected human blood cells (SYBR Green)
- Assay type: cell-based, Plasmodium falciparum
- Condition notes: Plasmodium falciparum, Erythrocyte, 72 h, NF54 or 3D7 infected human erythrocytes, 72 hours; read-out: EC50 (nM), inhibitory efficacy in delaying P. falciparum proliferation in infected human blood cells
Parameter measured: EC50

| Molecule | Assayed target | Measured value |
| --- | --- | --- |
| CN(C(=O)c1cn2c(-c3ccc(C(F)(F)F)cc3)cnc2cn1)c1ccc(C#N)c(Cl)c1 [Compound 502] | P. falciparum (NF54 or 3D7 strain) | 2000 nM |
| CN(Cc1ccccc1)C(=O)c1cn2c(-c3ccc(C(F)(F)F)cc3)cnc2cn1 [Compound 370] | P. falciparum (NF54 or 3D7 strain) | 8200 nM |
| CN(C(=O)c1cn2c(-c3ccc4nn(C)cc4c3)cnc2cn1)c1ccc(C#N)cc1 [Compound 149] | P. falciparum (NF54 or 3D7 strain) | 1520 nM |
| CN(C(=O)c1ccc(C(C)(C)C)cc1)c1cn2c(-c3ccc(C(F)(F)F)cc3)cnc2cn1 [Compound 417] | P. falciparum (NF54 or 3D7 strain) | > 10000 nM |
| CN(C(=O)c1cn2c(-c3ccc(-c4nnc(N)o4)cc3)cnc2cn1)c1ccc(Cl)cc1 [Compound 15] | P. falciparum (NF54 or 3D7 strain) | 29 nM |
| O=C(c1cn2c(-c3ccc(C(F)(F)F)cc3)cnc2cn1)N1CCOc2cc(F)ccc21 [Compound 305] | P. falciparum (NF54 or 3D7 strain) | 457 nM |
| CN(C(=O)c1cn2c(-c3ccc(C(F)(F)F)nc3)cnc2cn1)c1ccc(Cl)nc1 [Compound 413] | P. falciparum (NF54 or 3D7 strain) | 7400 nM |
| N#Cc1ccc(CNC(=O)c2cn3c(-c4ccc(C(F)(F)F)cc4)cnc3cn2)cc1 [Compound 362] | P. falciparum (NF54 or 3D7 strain) | 6470 nM |
| O=C1CN(C(=O)c2cn3c(-c4ccc(C(F)(F)F)cc4)cnc3cn2)c2ccccc2N1 [Compound 497] | P. falciparum (NF54 or 3D7 strain) | > 9320 nM |
| COc1ccc(-c2ccc(N(C)C(=O)c3cn4c(-c5ccc(OC)cc5C)cnc4cn3)cn2)c(C)c1 [Compound 302] | P. falciparum (NF54 or 3D7 strain) | 1850 nM |
| CN(C(=O)c1cn2c(-c3cncc(S(N)(=O)=O)c3)cnc2cn1)c1ccc(C#N)cc1 [Compound 184] | P. falciparum (NF54 or 3D7 strain) | > 10000 nM |
| CN(C(=O)c1cn2c(-c3ccc(C(F)(F)F)cc3)cnc2cn1)c1ccc(Cl)nc1Cl [Compound 342] | P. falciparum (NF54 or 3D7 strain) | 393 nM |
| CN(C(=O)c1cn2c(-c3ccc(NC(=O)C4(CN)CC4)cc3)cnc2cn1)c1ccc(C#N)cc1 [Compound 307] | P. falciparum (NF54 or 3D7 strain) | 1070 nM |
| CN(C(=O)c1cn2c(-c3ccc4c(c3)CC(=O)N4)cnc2cn1)c1ccc(Cl)nc1 [Compound 379] | P. falciparum (NF54 or 3D7 strain) | 6260 nM |
| CN(C)c1cccc(-c2cnc3cnc(C(=O)N(C)c4ccc(Cl)nc4)cn23)c1 [Compound 418] | P. falciparum (NF54 or 3D7 strain) | > 10000 nM |
| Cc1ccc(N(C)Cc2cn3c(-c4ccc(-c5ccn[nH]5)cc4)cnc3cn2)nc1 [Compound 47] | P. falciparum (NF54 or 3D7 strain) | 1240 nM |
